Target: T1, PD1-Fc (canine, UniProt A0A090BAM7 25-168)
T1 construct: also called Only Ag (PD1 Fc)
T1 sequence (A0A090BAM7 entry or part of it limits assumed): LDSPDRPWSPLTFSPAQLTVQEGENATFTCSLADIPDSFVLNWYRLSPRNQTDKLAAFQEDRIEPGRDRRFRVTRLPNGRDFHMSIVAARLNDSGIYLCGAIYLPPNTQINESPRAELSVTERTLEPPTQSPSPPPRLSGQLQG
Test: Octet BLI competition, competitor PD-L1 Fc on AHC sensor, against PD1 Fc only
OBSERVATION TYPE: % response (%)
The figure you give is taken to be in %; do not add the unit.

Solved entries (count: 2):
BINDER: PD-1 A-M11 (antibody, V domains shown, Mouse IgG1 kappa, hybridoma supernatant; The VL is therefore uncertain; also called 9B04) VH: EVQLQQSGAEVVKPGASVKLSCTASGFNIKDTYMHWVKQRPEQGLEWIGRIDPAIGNPKYDPKFQGRATITADTSSNTAYLQLSSLTSEDTAVYYCASGFYAMDCWGQGTSVTVSS VL: QIVLTQSPAIMSASPGEKVTMTCSASSSITYMFWYQQKPGSSPRLWIYDTSNLVSGVPARFSGSKSGTSYSLTITSMEAEDAATYYCQQYSGYPSTFGSGTKLEIK
% response [%]: -16

BINDER: PD-1 A-M23 (antibody, mouse IgG1, V domains shown, Mouse IgG1 kappa, hybridoma supernatant; also called 18A08) VH: EVRLQQSGAELVKPGASVKLSCTASGFNIKDTYLHWLKERPEQGLEWIGRIDPAIGNTRYDPKFQVKATITADTSSNTAYLQLSSLTSEDSAVYYCARGFYGMDYWGQGTSVTVSS VL: QIVLTQSPAIMSASPGEKVTMTCSASSSVSYMFWYQQKPGSSPRLWIYDTSNLVSGVPARFSGSRSGTSYSLTISSMEAEDAATYYCQQYSGYPYTFGGGTKLEIK
% response [%]: -0.47

Note: attention shifts to another entry.
Recorded % response for PD-1 A-M1 (antibody, mouse IgG1, V domains shown, Mouse IgG1 kappa, tested as hybridoma supernatant; also called 2C08) VH: EVQLQQSGAELVKPGASVKLSCTASGFNIKDTYMHWVKQRPEQGLEWIGRIDPAIDNTKYDPKFQGKATITADTSSNTAYLQLSSLTSEDTAVYYCASGFYTMDYWGQGTSVTVSS VL: QIVLTQSPAIMSASPGEKVTMTCSASSSVTYMYWFQQKPGSSPRLWIYDTSNLVSGVPARFSGSRSGTSYSLTISSMEAEDAATYYCQQYSGHPSSFGSGTKLEIK , please?
-21.9
